Where do the numbers come from? From patent US4555513A.

- method_description: Acute toxicity (oral, mortality after 72 hours)
- test_settings: mouse, in vivo; 400 mg/kg oral, 72 hours; read-out: Mortality
readout_name: mortality at 72 h (%)
One number for each entry, in %.

{"compound": "CC(C(=O)O)c1cc(Cl)c2c(c1)CCC(C)(C)N2 (centres unmarked) [Compound 36]", "unit_descriptor": "%", "mortality at 72 h": 0}

Next item in the queue.
get_value(item= CC(C(=O)O)c1cc(Cl)c2c(c1)C=CC(C)(C)N2 (centres unmarked) [Compound 35] , readout=mortality at 72 h) returns 0

---

- method_description: Acute toxicity (oral, mortality after 72 hours)
- test_settings: mouse, in vivo; 800 mg/kg oral, 72 hours; read-out: Mortality
Provide the recorded mortality at 72 h for the entries that follow.
One number for each entry, in %.

Check out these entries, answers already filled in.
{"molecule": "CC(C(=O)O)c1cc(Cl)c2c(c1)CCC(C)(C)N2 (stereo not drawn)", "meas_value": 10}
{"molecule": "CC(C(=O)O)c1cc(Cl)c2c(c1)C=CC(C)(C)N2 (stereo not drawn)", "meas_value": 20}

get_value(item= Cc1c(N(C)C)c(=O)n(-c2ccccc2)n1C [Aminopyrine, reference compound] , readout=mortality at 72 h) returns 100

---

- method_description: Acute toxicity (oral, mortality after 72 hours)
- test_settings: mouse, in vivo, po, 600 mg/kg
- Method: Groups of 10 male dd mice weighing some 18 g were orally administered the examined drugs and the number of death p 72 hours later was recorded.
readout_name: mortality at 72 h (%)
Numbers only, in %.

get_value(item= CCCCC1C(=O)N(c2ccccc2)N(c2ccccc2)C1=O [Phenylbutazone, reference compound] , readout=mortality at 72 h) returns 100
